Quick reference for pEC50 among some compounds
Molecular target: GLP-1R (Homo sapiens, UniProt P43220)
Sequence (P43220 24-463): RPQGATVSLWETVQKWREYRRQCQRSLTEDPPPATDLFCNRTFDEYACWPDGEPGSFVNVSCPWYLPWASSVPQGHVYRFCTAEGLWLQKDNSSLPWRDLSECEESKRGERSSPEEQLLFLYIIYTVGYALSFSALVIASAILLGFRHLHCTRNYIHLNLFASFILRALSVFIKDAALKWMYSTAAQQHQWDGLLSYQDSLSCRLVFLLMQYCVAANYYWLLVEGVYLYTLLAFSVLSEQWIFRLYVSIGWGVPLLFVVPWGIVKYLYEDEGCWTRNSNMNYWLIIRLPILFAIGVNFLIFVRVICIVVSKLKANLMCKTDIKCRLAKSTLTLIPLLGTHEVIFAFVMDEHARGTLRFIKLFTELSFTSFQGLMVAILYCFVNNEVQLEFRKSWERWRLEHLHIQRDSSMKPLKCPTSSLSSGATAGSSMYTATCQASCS
Assay: In vitro activity assay (cAMP HTRF, HEK293-CRE-luc-GLP-1R cells)
Conditions: cAMP HTRF 665 nm/620 nm, 1 h incubation
Procedure: HEK293-CRE-luc-GLP-1R cells were seeded into a 384-well cell culture plate (Greiner #781946) at a certain cell density (5 µL/well). 5 µl/well of 2× working solution was added to the 384-well microplate. […] HTRF signals at 665 nm and 620 nm were then measured using a multimode microplate reader. Data were exported from the microplate reader in Excel format. […] The logarithm of the sample concentration was calculated. […]
pEC50: −log10 of the molar value.
Measured metric: pEC50

Compound	Observed
Cc1cc(-n2nc3c(c2-n2ccn(-c4ccc5c(c4)N(C)C(=O)C54CCN(C(=O)C5C6COCC65)CC4)c2=O)[C@H](C)N(C(=O)c2cc4cc([C@H]5CCOC(C)(C)C5)ccc4n2[C@@]2(c4noc(=O)[nH]4)C[C@@H]2C)CC3)cc(C)c1F (stereo partly shown)	> 9.00
[2H]C([2H])([2H])N1C(=O)C2(CCN(C(=O)C3CC3F)CC2)c2ccc(-n3ccn(-c4c5c(nn4-c4cc(C)c(F)c(C)c4)CCN(C(=O)c4cc6cc(C7CCOC(C)(C)C7)ccc6n4C4(c6noc(=O)[nH]6)CC4C)C5C)c3=O)cc21 (stereo not shown)	> 9.00
[2H]C([2H])([2H])N1C(=O)C2(CCOCC2)c2ccc(-n3ccn(-c4c5c(nn4-c4ccc(F)c(C6(F)CC6)c4)CCN(C(=O)c4cc6cc([C@H]7CCOC(C)(C)C7)ccc6n4[C@@]4(c6noc(=O)[nH]6)C[C@@H]4C)[C@H]5C)c3=O)c(F)c21	> 9.00
[2H]C([2H])([2H])N1C(=O)C2(CCOCC2)c2ccc(-n3ccn(-c4c5c(nn4-c4cc(C)c(F)c(C)c4)CCN(C(=O)c4cc6cc(C7CCOCC7)ccc6n4[C@@]4(c6noc(=O)[nH]6)C[C@@H]4C)[C@H]5C)c3=O)cc21	> 9.00
[2H]C([2H])([2H])N1C(=O)C2(CCOCC2)c2ccc(-n3ccn(-c4c5c(nn4-c4cc(C)c(F)c(C)c4)CCN(C(=O)c4cc6cc([C@H]7CCOC(C)(C)C7)ccc6n4[C@@]4(c6noc(=O)[nH]6)C[C@@H]4C)[C@H]5C)c3=O)cc21	> 9.00
C[C@H]1c2c(nn(-c3ccc(F)c(C4(F)CC4)c3)c2-n2ccn(-c3ccc4c(c3F)N(C)C(=O)C43CCOCC3)c2=O)CCN1C(=O)c1cc2cc([C@H]3CCOC(C)(C)C3)ccc2n1[C@@]1(c2noc(=O)[nH]2)C[C@@H]1C	> 9.00
C[C@H]1c2c(nn(-c3ccc(F)c(C4CC4)c3)c2-n2ccn(-c3ccc4c(c3F)N(C)C(=O)C43CCOCC3)c2=O)CCN1C(=O)c1cc2cc([C@H]3CCOC(C)(C)C3)ccc2n1[C@@]1(c2noc(=O)[nH]2)C[C@@H]1C	> 9.00
[2H]C([2H])([2H])N1C(=O)C2(CCOCC2)c2ccc(-n3ccn(-c4c5c(nn4-c4ccc(F)c(C6CC6)c4)CCN(C(=O)c4cc6cc([C@H]7CCOC(C)(C)C7)ccc6n4[C@@]4(c6noc(=O)[nH]6)C[C@@H]4C)[C@H]5C)c3=O)c(F)c21	> 9.00
[2H]C([2H])([2H])N1C(=O)C2(CCOCC2)c2ccc(-n3ccn(-c4c5c(nn4-c4ccc(F)c(C6(F)CC6)c4)CCN(C(=O)c4cc6cc([C@H]7CCOC(C)(C)C7)ccc6n4[C@@]4(c6noc(=O)[nH]6)C[C@@H]4C)[C@H]5C)c3=O)cc21	> 9.00
Cc1cc(-n2nc3c(c2-n2ccn(-c4ccc5c(c4)N(C)C(=O)C54CCN(C(=O)c5cnn(C(F)F)c5)CC4)c2=O)[C@H](C)N(C(=O)c2cc4cc([C@H]5CCOC(C)(C)C5)ccc4n2[C@@]2(c4noc(=O)[nH]4)C[C@@H]2C)CC3)cc(C)c1F	> 9.00

====

molecular target: CYP1A2 (Homo sapiens, UniProt P05177); construct: from tissue; host or cells: human liver microsomes; assay: CYP450 enzyme activity inhibition assay (human liver microsomes); type: in vitro ADME; conditions: human, microsomes
Sequence (P05177 whole entry): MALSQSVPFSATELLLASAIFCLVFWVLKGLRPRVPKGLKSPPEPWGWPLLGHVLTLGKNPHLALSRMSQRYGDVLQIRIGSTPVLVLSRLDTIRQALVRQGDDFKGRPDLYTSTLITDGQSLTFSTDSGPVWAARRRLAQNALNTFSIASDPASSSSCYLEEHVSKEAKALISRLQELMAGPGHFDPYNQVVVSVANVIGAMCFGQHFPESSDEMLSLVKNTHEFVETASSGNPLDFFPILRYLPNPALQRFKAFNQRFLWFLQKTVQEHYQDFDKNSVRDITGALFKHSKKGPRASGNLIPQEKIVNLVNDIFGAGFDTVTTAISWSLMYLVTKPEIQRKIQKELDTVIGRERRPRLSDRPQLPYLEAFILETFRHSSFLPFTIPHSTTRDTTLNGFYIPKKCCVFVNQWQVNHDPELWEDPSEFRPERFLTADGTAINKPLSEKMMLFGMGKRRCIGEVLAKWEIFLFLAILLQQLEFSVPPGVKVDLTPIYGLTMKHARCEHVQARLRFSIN
pIC50: −log10 of the molar value.
Measured metric: pIC50

Molecule	Observed
[2H]C([2H])([2H])N1C(=O)C2(CCOCC2)c2ccc(-n3ccn(-c4c5c(nn4-c4cc(C)c(F)c(C)c4)CCN(C(=O)c4cc6cc([C@H]7CCOC(C)(C)C7)ccc6n4[C@@]4(c6noc(=O)[nH]6)C[C@@H]4C)[C@H]5C)c3=O)cc21	< 4.52
C[C@H]1c2c(nn(-c3ccc(F)c(C4(F)CC4)c3)c2-n2ccn(-c3ccc4c(c3)N(C)C(=O)C43CCOCC3)c2=O)CCN1C(=O)c1cc2cc([C@H]3CCOC(C)(C)C3)ccc2n1[C@@]1(c2noc(=O)[nH]2)C[C@@H]1C	< 4.52
Cc1cc(-n2nc3c(c2-n2ccn(-c4ccc5c(c4)N(C)C(=O)C54CCOCC4)c2=O)[C@H](C)N(C(=O)c2cc4cc(C5CCOC(C)(C)C5)sc4n2C2(c4noc(=O)[nH]4)C[C@@H]2C)CC3)cc(C)c1F (single isomer, unassigned)	< 4.52

====

experiment: Monkey pharmacokinetic assay; type: in vivo, male cynomolgus monkeys; settings: cynomolgus monkey, po; monkeys, intragastric administration 5 mg/kg, plasma
Measured metric: AUC(0-t)

Cc1cc(-n2nc3c(c2-n2ccn(-c4ccc5c(c4)N(C)C(=O)C54CCOCC4)c2=O)[C@H](C)N(C(=O)c2cc4cc([C@H]5CCOC(C)(C)C5)ccc4n2[C@@]2(c4noc(=O)[nH]4)C[C@@H]2C)CC3)cc(C)c1F 11600 ng·h/mL

====

assay: Mouse pharmacokinetic assay; assay type: in vivo, male C57 mice; details: mouse, po; mice, intragastric administration 10 mg/kg, plasma
Quick reference for AUC(0-t) among some molecules
Measured metric: AUC(0-t) (ng·h/mL)

Molecule	Reading unit	Observed
C=C(F)c1cc(-n2nc3c(c2-n2ccn(-c4ccc5c(c4F)N(C)C(=O)C54CCOCC4)c2=O)[C@H](C)N(C(=O)c2cc4cc([C@H]5CCOC(C)(C)C5)ccc4n2[C@@]2(c4noc(=O)[nH]4)C[C@@H]2C)CC3)ccc1F [Compound 54]	ng·h/mL	12100
Cc1cc(-n2nc3c(c2-n2ccn(-c4ccc5c(c4)N(C)C(=O)C54CCOCC4)c2=O)[C@H](C)N(C(=O)c2cc4cc([C@H]5CCOC(C)(C)C5)ccc4n2[C@@]2(c4noc(=O)[nH]4)C[C@@H]2C)CC3)cc(C)c1F [Compound 2]	ng·h/mL	23200
[2H]C([2H])([2H])N1C(=O)C2(CCOCC2)c2ccc(-n3ccn(-c4c5c(nn4-c4ccc(F)c(C(=C)F)c4)CCN(C(=O)c4cc6cc([C@H]7CCOC(C)(C)C7)ccc6n4[C@@]4(c6noc(=O)[nH]6)C[C@@H]4C)[C@H]5C)c3=O)c(F)c21 [Compound 55]	ng·h/mL	8670

====

assay: Monkey pharmacokinetic assay; type: in vivo, male cynomolgus monkeys; conditions: male, cynomolgus monkey, plasma, oral; monkeys, intragastric administration 5 mg/kg (intravenous 1 mg/kg)

Compound	Reading unit	bioavailability
Cc1cc(-n2nc3c(c2-n2ccn(-c4ccc5c(cnn5C)c4F)c2=O)[C@H](C)N(C(=O)c2cc4cc([C@H]5CCOC(C)(C)C5)ccc4n2[C@@]2(c4noc(=O)[nH]4)C[C@@H]2C)CC3)cc(C)c1F [Orforglipron, reference compound]	%	1.93

====

Biological target: GLP-1R (Homo sapiens)
Assay: In vitro activity assay (cAMP HTRF, HEK293-CRE-luc-GLP-1R cells)
Conditions: cAMP HTRF 665 nm/620 nm, 1 h incubation
Procedure: HEK293-CRE-luc-GLP-1R cells were seeded into a 384-well cell culture plate (Greiner #781946) at a certain cell density (5 µL/well). 5 µl/well of 2× working solution was added to the 384-well microplate. […] HTRF signals at 665 nm and 620 nm were then measured using a multimode microplate reader. Data were exported from the microplate reader in Excel format. […] The logarithm of the sample concentration was calculated. […]
pEC50: −log10 of the molar value.

Compound	pEC50
C=C(F)c1cc(-n2nc3c(c2-n2ccn(-c4ccc5c(c4F)N(C)C(=O)C54CCOCC4)c2=O)[C@H](C)N(C(=O)c2cc4cc([C@H]5CCOC(C)(C)C5)ccc4n2[C@@]2(c4noc(=O)[nH]4)C[C@@H]2C)CC3)ccc1F	> 9.00
[2H]C([2H])([2H])N1C(=O)C2(CCOCC2)c2ccc(-n3ccn(-c4c5c(nn4-c4ccc(F)c(C6(F)CC6)c4)CCN(C(=O)c4cc6cc(C7CCOCC7)ccc6n4[C@@]4(c6noc(=O)[nH]6)C[C@@H]4C)[C@H]5C)c3=O)c(F)c21	> 9.00
Cc1cc(-n2nc3c(c2-n2ccn(-c4ccc5c(c4)N(C)C(=O)C54CCN(S(=O)(=O)C5CC5)CC4)c2=O)[C@H](C)N(C(=O)c2cc4cc([C@H]5CCOC(C)(C)C5)ccc4n2[C@@]2(c4noc(=O)[nH]4)C[C@@H]2C)CC3)cc(C)c1F	> 9.00
Cc1cc(-n2nc3c(c2-n2ccn(-c4ccc5c(c4)N(C)C(=O)C54CCN(C(=O)c5cnn(CC6CC6)c5)CC4)c2=O)[C@H](C)N(C(=O)c2cc4cc([C@H]5CCOC(C)(C)C5)ccc4n2[C@@]2(c4noc(=O)[nH]4)C[C@@H]2C)CC3)cc(C)c1F	> 9.00
[2H]C([2H])([2H])N1C(=O)C2(CCN(S(=O)(=O)C3CC3)CC2)c2ccc(-n3ccn(-c4c5c(nn4-c4cc(C)c(F)c(C)c4)CCN(C(=O)c4cc6cc([C@H]7CCOC(C)(C)C7)ccc6n4[C@@]4(c6noc(=O)[nH]6)C[C@@H]4C)[C@H]5C)c3=O)cc21	> 9.00
Cc1cc(-n2nc3c(c2-n2ccn(-c4ccc5c(c4)N(C)C(=O)C54CCN(C(=O)c5cnn(C6CC6)c5)CC4)c2=O)[C@H](C)N(C(=O)c2cc4cc([C@H]5CCOC(C)(C)C5)ccc4n2[C@@]2(c4noc(=O)[nH]4)C[C@@H]2C)CC3)cc(C)c1F	> 9.00
Cc1cc(-n2nc3c(c2-n2ccn(-c4ccc5c(c4)N(C)C(=O)C54CCN(C(=O)C5(CF)CC5)CC4)c2=O)[C@H](C)N(C(=O)c2cc4cc([C@H]5CCOC(C)(C)C5)ccc4n2[C@@]2(c4noc(=O)[nH]4)C[C@@H]2C)CC3)cc(C)c1F	> 9.00
Cc1cc(-n2nc3c(c2-n2ccn(-c4ccc5c(c4)N(C)C(=O)C54CCN(C(=O)C5COC5)CC4)c2=O)[C@H](C)N(C(=O)c2cc4cc([C@H]5CCOC(C)(C)C5)ccc4n2[C@@]2(c4noc(=O)[nH]4)C[C@@H]2C)CC3)cc(C)c1F	> 9.00
C=C(F)c1cc(-n2nc3c(c2-n2ccn(-c4ccc5c(c4)N(C)C(=O)C54CCOCC4)c2=O)[C@H](C)N(C(=O)c2cc4cc([C@H]5CCOC(C)(C)C5)ccc4n2[C@@]2(c4noc(=O)[nH]4)C[C@@H]2C)CC3)ccc1F	> 9.00
C[C@H]1c2c(nn(-c3ccc(F)c(C4(F)CC4)c3)c2-n2ccn(-c3ccc4c(c3F)N(C)C(=O)C43CCOCC3)c2=O)CCN1C(=O)c1cc2cc(C3CCOCC3)ccc2n1[C@@]1(c2noc(=O)[nH]2)C[C@@H]1C	> 9.00
[2H]C([2H])([2H])N1C(=O)C2(CCOCC2)c2ccc(-n3ccn(-c4c5c(nn4-c4cc(C)c(F)c(C)c4)CCN(C(=O)c4cc6cc(C7CCOCC7)ccc6n4[C@@]4(c6noc(=O)[nH]6)C[C@@H]4C)[C@H]5C)c3=O)c(F)c21	> 9.00
Cc1cc(-n2nc3c(c2-n2ccn(-c4ccc5c(c4)N(C)C(=O)C54CCN(C(=O)C5CC5)CC4)c2=O)[C@H](C)N(C(=O)c2cc4cc([C@H]5CCOC(C)(C)C5)ccc4n2[C@@]2(c4noc(=O)[nH]4)C[C@@H]2C)CC3)cc(C)c1F	> 9.00
[2H]C([2H])([2H])N1C(=O)C2(CCOCC2)c2ccc(-n3ccn(-c4c5c(nn4-c4ccc(F)c(C(=C)F)c4)CCN(C(=O)c4cc6cc([C@H]7CCOC(C)(C)C7)ccc6n4[C@@]4(c6noc(=O)[nH]6)C[C@@H]4C)[C@H]5C)c3=O)cc21	> 9.00
Cc1cc(-n2nc3c(c2-n2ccn(-c4ccc5c(c4)N(C)C(=O)C54CCOCC4)c2=O)[C@H](C)N(C(=O)c2cc4cc(C5CCOCC5)ccc4n2[C@@]2(c4noc(=O)[nH]4)C[C@@H]2C)CC3)cc(C)c1F	> 9.00
[2H]C([2H])([2H])N1C(=O)C2(CCN(C(=O)C3C4COCC43)CC2)c2ccc(-n3ccn(-c4c5c(nn4-c4cc(C)c(F)c(C)c4)CCN(C(=O)c4cc6cc([C@H]7CCOC(C)(C)C7)ccc6n4[C@@]4(c6noc(=O)[nH]6)C[C@@H]4C)[C@H]5C)c3=O)cc21 (stereo partly drawn)	> 9.00
